test system: HeLa (Cervical Carcinoma); assay: combination Emax (second highest fraction inhibited in the dose matrix, 72 h); higher = more inhibition; extreme values may be limits of the assay
Below, each entry is listed with its recorded combination Emax.
When you answer, write just the number.

Worked cases, combination Emax given:
So, CN(CCO)CC[C@H](CSc1ccccc1)Nc1ccc(S(=O)(=O)NC(=O)c2ccc(N3CCC([C@@H](O)c4ccccc4-c4ccc(Cl)cc4)CC3)cc2)cc1S(=O)(=O)C(F)(F)F [AZD4320] + C1CN(CCC1(C(=O)N[C@@H](CCO)C2=CC=C(C=C2)Cl)N)C3=NC=NC4=C3C=CN4 [Capivasertib] (first compound max 1 µM, 7x7, partner max 3 µM) ? Its combination Emax was 0.0628

The molecule listed as CC1(C)CCC(CN2CCN(c3ccc(C(=O)NS(=O)(=O)c4ccc(NCC5CCOCC5)c([N+](=O)[O-])c4)c(Oc4cnc5[nH]ccc5c4)c3)CC2)=C(c2ccc(Cl)cc2)C1 [Venetoclax] + CCN(CCO)CCCOc1ccc2c(Nc3cc(CC(=O)Nc4cccc(F)c4)[nH]n3)ncnc2c1 [AZD2811] (first compound max 1 µM, 7x7, partner max 1 µM) has a reported combination Emax of 0.279

For COc1cc2c(cc1OCCCCCOc1cc3c(cc1OC)C(=O)N1C=C(C)C[C@H]1C=N3)N=C[C@@H]1CC(C)=CN1C2=O [SG3199] + O=C(c1cc(Cc2n[nH]c(=O)c3ccccc23)ccc1F)N1CCN(C(=O)C2CC2)CC1 [Olaparib] (first compound max 0.001 µM, 7x7, partner max 10 µM) the molecule record lists combination Emax as 0.159

Entry COc1cccc(OCCCN)c1-c1cc(Nc2cnc(C#N)cn2)n[nH]1 [Prexasertib] + Cc1cc2ncnn2cc1Nc1ncc2c(n1)n(C1CCOCC1)c(=O)n2C [AZD7648] (first compound max 1 µM, 7x7, partner max 10 µM) , combination Emax reported as 0.839

The measured combination Emax associated with C[C@@H](c1ccc2nccn2c1)n1nnc2ncc(-c3cnn(C)c3)nc21 [Savolitinib] + Cc1c2c(nn1C)CSCc1cc(n(C)n1)CSc1cc(c3ccccc3c1)OCCCc1c(C(=O)O)n(C)c3c-2c(Cl)ccc13 [AZD5991] (first compound max 1 µM, 7x7, partner max 1 µM) reads 0.362

New cases:
Per the record, CC(=O)c1c(C)c2cnc(Nc3ccc(N4CCNCC4)cn3)nc2n(C2CCCC2)c1=O [Palbociclib] + CN(CC[C@H](CSC1=CC=CC=C1)NC2=C(C=C(C=C2)S(=O)(=O)NC(=O)C3=CC=C(C=C3)N4CCC(CC4)[C@H](C5=CC=CC=C5C6=CC=C(C=C6)Cl)O)S(=O)(=O)C(F)(F)F)CCO [AZD4320] (first compound max 10 µM, 7x7, partner max 1 µM) has combination Emax of 0.117

Kindly note the recorded combination Emax for COc1nnc2ccc(N3CCC(c4ccc(OCCN5CCN(C)C(=O)[C@H]5C)cc4)CC3)nn12 [AZD5153] + C[C@@H]1COCCN1C2=NC(=NC(=C2)C3(CC3)[S@](=N)(=O)C)C4=C5C=CNC5=NC=C4 [AZD6738] (first compound max 1 µM, 7x7, partner max 10 µM) , which is 0.589
